Collected from the literature: pIC50 of various compounds toward Protein kinase C alpha type (Homo sapiens).
pIC50: −log10 of the molar value.

Chemical string | Reading
COc1ccc(CNC(=O)Nc2cc(C#N)ccn2)cc1 | < 4.00
NN1C(=O)c2c(c3c4cccc(Cl)c4[nH]c3c3[nH]c4c(Cl)cccc4c23)C1=O | < 4.00
Clc1cccc(NCc2nc(-c3ccncc3)n[nH]2)c1 | < 5.00
COc1ccccc1C(=O)Nc1ccc(C)c(Nc2nccc(-c3cccnc3)n2)c1 | < 4.00
O=C1NC(=O)c2c1c1c3cccc(Cl)c3[nH]c1c1[nH]c3c(Cl)cccc3c21 | < 4.00

Req: Record lookup: for Protein kinase C alpha type (Homo sapiens), what pIC50 belongs to Cc1cn2c(-c3cn[nH]c3)cnc2c(Nc2cc(CN3CCC(F)(F)C3)ns2)n1.Cl ?
Resp: < 7.00

Req: Also check CC(C)c1nnc2ccc(-c3c[nH]nc3-c3cc(F)ccc3F)cn12
Resp: < 5.00

---

Collected from the literature: IC50 of various compounds toward Protein kinase C alpha type (Homo sapiens).

Examples with their reported IC50 follow.
Chemical string | Tested system | Quantity | Reading
COc1ccc2c(c1)C(=O)N(c1nc(C(=O)Nc3cnccc3N3CCNCC3)cs1)C2 | Protein kinase C alpha type (Homo sapiens) | IC50 | > 30 µM
COc1cc(O)c(CC=C(C)C)c(O)c1C(=O)/C=C/c1ccc(O)cc1 | Protein kinase C alpha type (Homo sapiens) | IC50 | > 100 µM
CC(=O)c1ccc(N2CCN(C(=O)CN3CC[C@@H](C(=O)Nc4ccc(O)c(Cl)c4)C3)CC2)cc1 | Protein kinase C alpha type (Homo sapiens) | IC50 | > 30 µM

Req: # query: IC50 of entry CC(C)(C)OC(=O)Nc1ccc(-c2[nH]nc3ncnc(Nc4cccc(Cl)c4)c23)cc1
Resp: > 10 µM

Req: Also check CC(C)(C)c1nnc2ccc(-c3ocnc3-c3cc(F)c(F)cc3F)cn12
Resp: > 10 µM

Req: Also check c1ccc(CSc2cccc(NCc3nc(-c4ccncc4)n[nH]3)c2)cc1
Resp: > 10 µM

---

Collected from the literature: IC50 of various compounds toward Protein kinase C alpha type (Homo sapiens, UniProt P17252).

Examples with their reported IC50 follow.
Chemical string | Reading
O=C(Nc1ccc(Cl)c(Nc2nccc(-c3cccnc3)n2)c1)c1ccccc1 | > 100 µM
O=C(NCCCc1ccccc1)c1cccc(NCc2nc(-c3ccncc3)n[nH]2)c1 | > 10 µM
CCN(CCO)Cc1cc(Nc2nc(C)cn3c(-c4cn[nH]c4)cnc23)sn1 | > 0.5 µM

Req: Record lookup: for Protein kinase C alpha type (Homo sapiens, UniProt P17252), what IC50 belongs to CO[C@H]1[C@H](O)[C@@H](O)[C@H](n2c3c(Cl)cccc3c3c4c(c5c6cccc(Cl)c6[nH]c5c32)C(=O)N(C)C4=O)O[C@@H]1CO ?
Resp: > 100 µM

---

Collected from the literature: IC50 of various compounds toward Protein kinase C alpha type (Homo sapiens, UniProt P17252).

Examples with their reported IC50 follow.
Chemical string | Tested system | IC50
Cn1c(CNc2cccc(C(=O)NCc3c(F)cccc3F)c2)nnc1-c1ccncn1 | Protein kinase C alpha type (Homo sapiens, UniProt P17252) | > 10 µM
CONC(=O)c1cc(Nc2ncnn3cc(-c4nnc(C(F)F)o4)c(C(C)C)c23)c(F)cc1F | Protein kinase C alpha type (Homo sapiens, UniProt P17252) | > 50 µM
Cc1cn2c(-c3cn[nH]c3)cnc2c(Nc2cc(Cc3ccccn3)ns2)n1 | Protein kinase C alpha type (Homo sapiens, UniProt P17252) | > 0.5 µM
CC(=O)Nc1ccc(C)c(Nc2nccc(-c3cccnc3)n2)c1 | Protein kinase C alpha type (Homo sapiens, UniProt P17252) | > 100 µM
c1ccc(Nc2ncnc3[nH]c4c(c23)CCCC4)cc1 | Protein kinase C alpha type (Homo sapiens, UniProt P17252) | > 100 µM

Req: Record lookup: for Protein kinase C alpha type (Homo sapiens, UniProt P17252), what IC50 belongs to CC(C)c1nnc2ccc(-c3ocnc3-c3cc(F)c(F)cc3F)cn12 ?
Resp: > 10 µM

Req: Also check Clc1ccc(-c2ccc(-c3nccn3-c3ccc(N4CCNCC4)cc3)o2)cc1
Resp: > 30 µM

Req: Also check CCN(Cc1cc(Nc2nc(C)cn3c(-c4cn[nH]c4)cnc23)sn1)C(C)(C)CO
Resp: > 0.1 µM
